Cited source for all entries: the supplement of paper PMC10567573

This listing pairs variants with measured protein stability index.
B1: PTPRD (parent)
chain: PVVSMDLDPQPITDEEEGLIWVVG

- Variants of: B1
- measurement.notes: protein stability index of a GFP-peptide fusion (GPS, HEK-293T) (PSI 1-6); higher = more stable;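 also: lentivirally expressed fusions sorted by FACS into six bins by GFP to DsRed ratio, PSI derived from sequencing read proportions per bin multiplied by bin number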
- stated.conditions: c terminus: a fixed tail appended

variant.notation: E15N
protein stability index: 3.67
--
variant.notation: T13L
protein stability index: 3.07
--
variant.notation: V2M
protein stability index: 4.2
--
variant.notation: G18Q
protein stability index: 3.37
--
variant.notation: S4T
protein stability index: 3.73
--
variant.notation: E17V
protein stability index: 1.75
--
variant.notation: D6V
protein stability index: 2.7
--
variant.notation: Q10Y
protein stability index: 2.92
--
variant.notation: M5T
protein stability index: 4.01
--
variant.notation: I20K
protein stability index: 4.64
--
variant.notation: D8Y
protein stability index: 2.74
--
variant.notation: V3G
protein stability index: 3.98
--
variant.notation: G24E
protein stability index: 3.77
--
variant.notation: P9G
protein stability index: 4.54
--
variant.notation: D6W
protein stability index: 1.94
--
variant.notation: V3S
protein stability index: 3.18
--
variant.notation: W21V
protein stability index: 4.27
--
variant.notation: M5Q
protein stability index: 4.62
--
variant.notation: I12E
protein stability index: 4.94
--
variant.notation: D8L
protein stability index: 3.31
--
variant.notation: G18L
protein stability index: 3.16
--
variant.notation: E15G
protein stability index: 3.21
--
variant.notation: W21Q
protein stability index: 5.18
--
variant.notation: V2T
protein stability index: 4.09
--
variant.notation: G18K
protein stability index: 3.72
--
variant.notation: T13D
protein stability index: 4.13
--
variant.notation: S4M
protein stability index: 2.75
--
variant.notation: Q10K
protein stability index: 3.76
--
variant.notation: L19Q
protein stability index: 3.66
--
variant.notation: M5N
protein stability index: 4.7
--
variant.notation: E17C
protein stability index: 2.25
--
variant.notation: L7T
protein stability index: 2.63
--
variant.notation: I12R
protein stability index: 4.74
--
variant.notation: L7F
protein stability index: 4.79
--
variant.notation: M5H
protein stability index: 4.66
--
variant.notation: I20Q
protein stability index: 4.95
--
variant.notation: D6P
protein stability index: 3.48
--
variant.notation: P9K
protein stability index: 3.71
--
variant.notation: G24M
protein stability index: 2.87
--
variant.notation: V2K
protein stability index: 2.77
--
variant.notation: Q10A
protein stability index: 3.56
--
variant.notation: D8N
protein stability index: 3.55
--
variant.notation: E16H
protein stability index: 3.2
--
variant.notation: D14G
protein stability index: 3.87
--
variant.notation: P9F
protein stability index: 1.93
--
variant.notation: G24T
protein stability index: 3.21
